# Target or system: Ile83Glu anti-HER2 memAb
# Sequence (heavy, as listed by the source, chain 1 of 2): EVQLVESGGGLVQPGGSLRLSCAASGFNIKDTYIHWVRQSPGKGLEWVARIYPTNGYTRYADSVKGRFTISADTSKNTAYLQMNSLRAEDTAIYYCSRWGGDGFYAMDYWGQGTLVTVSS
# Sequence (light, as listed by the source, chain 2 of 2): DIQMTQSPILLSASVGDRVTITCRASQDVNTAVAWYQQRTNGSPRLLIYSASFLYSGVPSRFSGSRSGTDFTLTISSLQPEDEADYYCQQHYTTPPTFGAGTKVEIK
# Assay explanation: SPR; memAb variant amine-coupled to a CM5 chip, peptide flowed over, HBS-EP+; temperature not told for this result (25 °C or 37 °C)
Positions of bridges follow the written chain, without caps; N, C: chain ends. No end group written: not given here.
Outcome measure: Kd

Incoming: What measured Kd goes with CQFDLSTRRLKC (disulfide 1-12 (inferred)) [original meditope (…)] ?
Outgoing: 23 nM

Reference source: paper PMC5910394
